Values from paper PMC4398509

- Tested on: CRP_ec (cAMP receptor protein) (Escherichia coli, UniProt P0ACJ8 1-210)
- Sequence (P0ACJ8 whole entry): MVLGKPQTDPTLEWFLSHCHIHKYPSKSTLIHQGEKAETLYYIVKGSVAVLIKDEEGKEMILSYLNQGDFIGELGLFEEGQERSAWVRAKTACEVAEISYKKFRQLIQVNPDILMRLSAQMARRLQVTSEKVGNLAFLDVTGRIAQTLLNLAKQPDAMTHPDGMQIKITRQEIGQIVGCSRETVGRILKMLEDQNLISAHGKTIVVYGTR
- Test name: EMSA; cAMP (20 pmol); EMSA: 0.2 pmol DIG probe, CRP (2 pmol in Fig. 6), 20 pmol cAMP, Roche binding buffer (composition and pH not given), 20 uL (15 uL in Fig. S2), room temperature
- Test settings: protein: recombinant; tags: His6 (pET28 construct, nickel purified); chain copies: 2; label: DIG-ddUTP 3' end (terminal transferase); blunt
Recorded endpoint: binding result

Binder	Recorded endpoint	Obs value
ybeD_es (dsDNA) DNA 1: GAACACTTGAAAGTGTGATTTCCATCCCCATATACTAGGTAT DNA 2: ATACCTAGTATATGGGGATGGAAATCACACTTTCAAGTGTTC	binding result	binds
ybeD_kp (dsDNA) DNA 1: GAACACTTGAAAGTGTGATTTCCATCCCCATATACTATTCAT DNA 2: ATGAATAGTATATGGGGATGGAAATCACACTTTCAAGTGTTC	binding result	binds
ybeD_ec (dsDNA) DNA 1: AAACACTTGAAAGTGTAATTTCCGTCCCCATATACTAAGCAT DNA 2: ATGCTTAGTATATGGGGACGGAAATTACACTTTCAAGTGTTT	binding result	no binding
lipA_ec (dsDNA) DNA 1: ACGGAGTAATAGATGTTATCCGTAATGCATTTTGAAAAAGTA DNA 2: TACTTTTTCAAAATGCATTACGGATAACATCTATTACTCCGT	binding result	no binding
ybeD_st1 (dsDNA) DNA 1: GAACGCTTGAAAGTGTGATTTTCGTCCCCATATACTATGCAT DNA 2: ATGCATAGTATATGGGGACGAAAATCACACTTTCAAGCGTTC	binding result	binds
lipBA_she (dsDNA) DNA 1: CAAGGTCATAAAGTGTGATCTATCTTACATTTATGGCCAAGAG DNA 2: CTCTTGGCCATAAATGTAAGATAGATCACACTTTATGACCTTG	binding result	binds
ybeD_st2 (dsDNA) DNA 1: CTGTGGCGGGAGTTGTTATTTTTTTTACGTAATGCCGGAGCT DNA 2: AGCTCCGGCATTACGTAAAAAAAATAACAACTCCCGCCACAG	binding result	no binding
ybeD_yp (dsDNA) DNA 1: ATTGGCCCCATATTGTGATTAATCTTATATTGCAAATAAGCT DNA 2: AGCTTATTTGCAATATAAGATTAATCACAATATGGGGCCAAT	binding result	no binding
fadD_ec (dsDNA) DNA 1: GTAAAGATAAAAATAAATAGTGACGCGCTTCGCAACCTTTTCGTTGGG DNA 2: CCCAACGAAAAGGTTGCGAAGCGCGTCACTATTTATTTTTATCTTTAC	binding result	binds
